Recorded values, source ChEMBL document CHEMBL1201862.

- System: ACHN
- assay-protocol: NCI tumour cell line growth inhibition, 48 h
Active and inactive are the calls of the source. Rule as the data show it: active = GI50 up to about 1.1 µM and inactive = higher.

[
  {
    "compound": "COCCN1C2=CCCCC2=Nc2c(N)nc(N)nc21",
    "GI50": "> 100 µM (inactive)"
  },
  {
    "compound": "NC(=O)CC1(O)C=CC(=O)C=C1",
    "GI50": "> 100 µM (inactive)"
  },
  {
    "compound": "O=C1Nc2ccccc2/C1=N/Nc1ccc([N+](=O)[O-])cc1[N+](=O)[O-]",
    "GI50": "7.08 µM (inactive)"
  },
  {
    "compound": "Cc1ccc2c(c1)NC(=O)CCSSCCC(=O)N2",
    "GI50": "> 100 µM (inactive)"
  },
  {
    "compound": "COC(=O)C(=O)C(C#N)c1ccc(Cl)c(Cl)c1 (stereo unspecified)",
    "GI50": "> 100 µM (inactive)"
  },
  {
    "compound": "N#Cc1[nH]c(=O)n(-c2ccc([N+](=O)[O-])cc2)c1N",
    "GI50": "> 10 µM (inactive)"
  }
]

====

Listed molecules paired with reported GI50
- Tested on: SW-620
- assay-protocol: NCI tumour cell line growth inhibition, 48 h
Calls of active or inactive are those of the source. Rule as the data show it: active = GI50 up to about 1.1 µM and inactive = higher.

[
  {
    "molecule": "CC(=O)ON(OC(C)=O)c1ccc(C)cc1",
    "experimental-target": "SW-620",
    "GI50": "> 100 µM (inactive)"
  },
  {
    "molecule": "NC(=O)CC1(O)C=CC(=O)C=C1",
    "experimental-target": "SW-620",
    "GI50": "> 100 µM (inactive)"
  },
  {
    "molecule": "O=c1c2ccccc2c(=O)n2n1-c1cccc(c1)CSSCc1cccc-2c1",
    "experimental-target": "SW-620",
    "GI50": "> 10 µM (inactive)"
  },
  {
    "molecule": "COC(=O)NC(=O)c1cn(C2OC(CO)C(O)C2O)c(=O)[nH]c1=O (configuration not stated)",
    "experimental-target": "SW-620",
    "GI50": "> 100 µM (inactive)"
  },
  {
    "molecule": "O=C(c1ccc(Cl)cc1Cl)N(/N=C/C=C/c1ccccc1)c1nnc(-c2ccccc2)c(-c2ccccc2)n1",
    "experimental-target": "SW-620",
    "GI50": "> 100 µM (inactive)"
  },
  {
    "molecule": "CC1(C)C(c2ccccc2)=[N+]([O-])C(C)(C)N1O",
    "experimental-target": "SW-620",
    "GI50": "> 10 µM (inactive)"
  },
  {
    "molecule": "C=CCC(C(=O)O)c1ccccc1 (configuration not stated)",
    "experimental-target": "SW-620",
    "GI50": "> 100 µM (inactive)"
  },
  {
    "molecule": "CN(C)Cc1cc(C(=O)/C=C/c2c(F)cccc2Cl)cc(CN(C)C)c1O",
    "experimental-target": "SW-620",
    "GI50": "9.57 µM (inactive)"
  },
  {
    "molecule": "FC(F)(F)c1cccnc1Sc1nc2ccccc2s1",
    "experimental-target": "SW-620",
    "GI50": "> 100 µM (inactive)"
  },
  {
    "molecule": "Clc1ccc(OCc2nnc(CCCCCCCCc3nnc(COc4ccc(Cl)cc4Cl)o3)o2)c(Cl)c1",
    "experimental-target": "SW-620",
    "GI50": "> 100 µM (inactive)"
  },
  {
    "molecule": "Cc1ccc2c(c1)NC(=O)CCSSCCC(=O)N2",
    "experimental-target": "SW-620",
    "GI50": "> 100 µM (inactive)"
  },
  {
    "molecule": "CNC(=O)c1nn[nH]c1O",
    "experimental-target": "SW-620",
    "GI50": "> 100 µM (inactive)"
  }
]
